Target sequence: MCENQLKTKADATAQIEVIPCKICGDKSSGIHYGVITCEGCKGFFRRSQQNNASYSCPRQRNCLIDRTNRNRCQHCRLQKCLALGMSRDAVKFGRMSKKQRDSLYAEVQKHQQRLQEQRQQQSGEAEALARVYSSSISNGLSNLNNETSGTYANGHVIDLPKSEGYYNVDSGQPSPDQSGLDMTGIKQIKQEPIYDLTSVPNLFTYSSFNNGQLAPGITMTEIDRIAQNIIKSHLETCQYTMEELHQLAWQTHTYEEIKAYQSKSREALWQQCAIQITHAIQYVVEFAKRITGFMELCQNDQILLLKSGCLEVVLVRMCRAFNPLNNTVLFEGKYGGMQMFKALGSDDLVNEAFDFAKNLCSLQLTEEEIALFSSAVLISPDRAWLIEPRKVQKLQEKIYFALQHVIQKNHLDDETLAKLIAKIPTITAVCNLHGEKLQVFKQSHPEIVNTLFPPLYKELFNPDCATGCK
pEC50: −log10 of the molar value.
readoutLabel: pEC50

**Query** I have this compound here, CC(C)(C[C@H]1CN(S(=O)(=O)c2cccc(C(F)(F)F)c2)c2cc(-c3cc(F)cc(OC(F)F)c3)ccc2O1)C(=O)O [CINTIRORGON] , and I need its recorded pEC50.
**Result** < 5.00
